These data points were gathered from patent US12296016B2.

- assaySetup: mouse, in vivo, 2.5 nmol/kg
resultType: bioavailability (%)
Supply the numeric figure in %, leaving out any unit text.

For this compound ( N=C(N)NCCC[C@@H](NC(=O)CNC(=O)[C@@H](Cc1ccc(O)cc1)NC(=O)CNC(=O)[C@@H](CO)NC(=O)CNC(=O)[C@@H](CCCCNC(=O)CCCC[C@@H]1SC[C@@H]2NC(=O)N[C@@H]21)NC(=O)[C@H](N)Cc1cn(CCCCCCNC(=O)c2ccc(-c3c4ccc(=N)c(S(=O)(=O)O)c-4oc4c(S(=O)(=O)O)c(N)ccc34)c(C(=O)O)c2)nn1)C(=O)NCC(=O)N[C@H](CO)C(=O)NCC(=O)N[C@H](CCCCNC(=O)CON)C(N)=O [peptide alone] ), measured bioavailability is 1.3
